- Test protocol: Sprague-Dawley rat pharmacokinetics, IV and PO cassette dosing
- Type: in vivo
- Run parameters: IV 1 mg/kg, Method 1
Observation type: IV T1/2 (h)

Below are worked cases with known answers.
Compound: CNC(=O)c1[nH]c(C(=O)N[C@H]2CC[C@H](O)CC2)cc1OC(C)c1ccc(Cl)cc1F (single isomer, unassigned) [Example 38]
Units symbol: h
IV T1/2: 1.4
--
Compound: CNC(=O)c1[nH]c(C(=O)NC2CC2)cc1O[C@@H](C)c1ccccc1F [Example 59]
Units symbol: h
IV T1/2: 1.1

P = CNC(=O)c1[nH]c(C(=O)NC2COC2)cc1OC(C)c1ccc(Cl)cc1 (single isomer, unassigned) [Example 31]
Q = CNC(=O)c1[nH]c(C(=O)N[C@H]2CC[C@H](O)CC2)cc1OC(C)c1ccccc1 (single isomer, unassigned) [Example 98]
Task item: Lowest IV T1/2? choose P or Q Record your answer as the label of the chosen record.
Reply: P

====

- Test protocol: Beagle dog PK study 2 of Example 101 (HPβCD based formulation, IV), with clinical observations
- Format: in vivo
- Run parameters: beagle, dog, plasma, iv, 1 mg/kg, dog PK study 2, IV 1 mg/kg, HPβCD, mean
Observation type: C0 (ng/mL)
Write the number in ng/mL without appending the unit.

Task item: Tell me measured C0 for CNC(=O)c1[nH]c(C(=O)NC2CCC2)cc1O[C@@H](C)c1ccccc1 (stereo in doubt) please.
Reply: 1880

====

- Test protocol: Beagle dog PK study 1 of Example 101 (propylene glycol-based formulation, IV and PO), with clinical observations
- Type: in vivo
- Run parameters: beagle, dog, plasma, iv, 1 mg/kg, dog PK study 1, IV, 1 h, Test Animal 1; read-out: Plasma concentration
- Procedure: The purpose of this study was to examine the pharmacokinetics of Example 101 in beagle dogs. […] An oral PK study was also undertaken in Lewis rats—see Experimental Method C. Body weight was recoded prior to dosing, and detailed clinical observations were made prior to dosing and throughout the study, as needed. Subsequently, 17.320 mL Vitamin E TPGS was added, and the solution was vortexed and sonicated. Then, 51.960 mL water was added, and solution was then heated. […]
Observation type: concentration at 1 h (ng/mL)
Write the number in ng/mL without appending the unit.

Task item: Tell me measured concentration at 1 h for CNC(=O)c1[nH]c(C(=O)NC2CCC2)cc1O[C@@H](C)c1ccccc1 (stereo in doubt) [Example 101] please.
Reply: 623

====

- Test protocol: Beagle dog PK study 1 of Example 101 (propylene glycol-based formulation, IV and PO), with clinical observations
- Type: in vivo
- Run parameters: beagle, dog, plasma, iv, 1 mg/kg, dog PK study 1, IV, 4 h, Test Animal 2; read-out: Plasma concentration
Observation type: concentration at 4 h (ng/mL)
Write the number in ng/mL without appending the unit.

Task item: Tell me measured concentration at 4 h for CNC(=O)c1[nH]c(C(=O)NC2CCC2)cc1O[C@@H](C)c1ccccc1 (stereo in doubt) please.
Reply: 56.5

====

- Test protocol: Beagle dog PK study 1 of Example 101 (propylene glycol-based formulation, IV and PO), with clinical observations
- Format: in vivo
- Run parameters: beagle, dog, plasma, iv, 1 mg/kg, dog PK study 1, IV, 2 h, Test Animal 2; read-out: Plasma concentration
Observation type: concentration at 2 h (ng/mL)
Write the number in ng/mL without appending the unit.

Task item: Tell me measured concentration at 2 h for CNC(=O)c1[nH]c(C(=O)NC2CCC2)cc1O[C@@H](C)c1ccccc1 (stereo in doubt) please.
Reply: 265

====

- Test protocol: Pharmacokinetics and plasma concentration of Example 101 in Lewis rats after oral administration (CIA study)
- Format: in vivo, Lewis rat
- Run parameters: Lewis, rat, plasma, oral, 10 mg/kg, plasma, oral, day 0, 10 mg/kg, 14 h; read-out: Mean Concentration
Observation type: concentration at 14 h (ng/mL)
Write the number in ng/mL without appending the unit.

Task item: Tell me measured concentration at 14 h for CNC(=O)c1[nH]c(C(=O)NC2CCC2)cc1O[C@@H](C)c1ccccc1 (stereo in doubt) please.
Reply: 439

====

- Test protocol: Beagle dog PK study 2 of Example 101 (HPβCD based formulation, IV), with clinical observations
- Format: in vivo
- Run parameters: beagle, dog, plasma, iv, 1 mg/kg, dog PK study 2, IV 1 mg/kg, HPβCD, Test Animal 1
Observation type: AUC(0-inf) (ng·h/mL)
Write the number in ng·h/mL without appending the unit.

Task item: Tell me measured AUC(0-inf) for CNC(=O)c1[nH]c(C(=O)NC2CCC2)cc1O[C@@H](C)c1ccccc1 (stereo in doubt) please.
Reply: 723

====

- Test protocol: Beagle dog PK study 2 of Example 101 (HPβCD based formulation, IV), with clinical observations
- Format: in vivo
- Run parameters: beagle, dog, plasma, iv, 1 mg/kg, dog PK study 2, IV 1 mg/kg, HPβCD, 0.25 h, Test Animal 2; read-out: Plasma concentration
Observation type: concentration at 0.25 h (ng/mL)
Write the number in ng/mL without appending the unit.

Task item: Tell me measured concentration at 0.25 h for CNC(=O)c1[nH]c(C(=O)NC2CCC2)cc1O[C@@H](C)c1ccccc1 (stereo in doubt) please.
Reply: 820

====

The reader will find reported IC50 values listed item by item below.
- Measured on: BRD4 BD2 (Homo sapiens (Human))
- Test protocol: NanoBRET bromodomain assay, NanoLuc-BRD4-BD2 fusion in HEK293 cells
- Run parameters: BRD4 BD2 (IC50), NanoBRET, HEK293 cells, top concentration 10 μM

Compound: CCNC(=O)c1cc(OC(C)c2ccc(Cl)cc2F)c(C(=O)NC)[nH]1 (single isomer, unassigned) [Example 42]
Observation type: IC50
Observed measurement: > 10000 nM

Task item: Tell me measured IC50 for `CNC(=O)c1[nH]c(-c2ncc(C)[nH]2)cc1O[C@@H](C)c1ccc(Cl)cc1` please.
Reply: < 50 nM

Task item: Tell me measured IC50 for CCNC(=O)c1cc(OC(C)c2ccc(C#N)cc2)c(C(=O)NC)[nH]1 (racemic) please.
Reply: > 10000 nM

====

- Measured on: BRD4 BD2 (Homo sapiens (Human), UniProt O60885)
- Test protocol: NanoBRET bromodomain assay, NanoLuc-BRD4-BD2 fusion in HEK293 cells
- Run parameters: BRD4 BD2 (IC50), NanoBRET, HEK293 cells, top concentration 10 μM
Observation type: IC50

Below are worked cases with known answers.
Compound: CNC(=O)c1[nH]c(-c2ncc(C)[nH]2)cc1O[C@H](C)c1ccccc1
IC50: 1 to 10 µM
//
Compound: CNC(=O)c1[nH]c(C(=O)NC2CC(F)(F)C2)cc1O[C@@H](C)c1ccccc1
IC50: 0.2 to 1 µM
//
Compound: CCNC(=O)c1cc(OC(C)c2c(Cl)cccc2Cl)c(C(=O)NC)[nH]1 (single isomer, unassigned)
IC50: > 10 µM

Next, consider the following compound.
Task item: Tell me measured IC50 for `CNC(=O)c1[nH]c(C(=O)NC2COC2)cc1O[C@@H](C)c1ccccc1` please.
Reply: 0.05 to 0.2 µM

====

- Measured on: BRD4 BD2 (Homo sapiens (Human), UniProt O60885)
- Test protocol: NanoBRET bromodomain assay, NanoLuc-BRD4-BD2 fusion in HEK293 cells;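 further: tracer displacement BRET read in transfected cells after 2 h compound exposure at 37 °C, signal in milliBRET units corrected against no-tracer background wells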
- Run parameters: IC50 for BRD4 BD1 divided by IC50 for BRD4 BD2; qualitative if an IC50 is at the upper limit
Observation type: Fold selectivity

Compound: CNC(=O)c1[nH]c(C(=O)N[C@H]2CC[C@H](O)CC2)cc1OC(C)c1ccc(Cl)cc1F (single isomer, unassigned) [Example 38]
Fold selectivity: XX (Fold >50 and ≤200)

Compound: CCNC(=O)c1cc(OC(C)c2ccc(Cl)cc2F)c(C(=O)NC)[nH]1 (single isomer, unassigned) [Example 41]
Fold selectivity: X (Fold >2 and ≤50)

Compound: CCNC(=O)c1cc(OC(C)c2ccccn2)c(C(=O)NC)[nH]1 (racemic) [Example 96]
Fold selectivity: X (Fold >2 and ≤50)

Compound: CNC(=O)c1[nH]c(C(=O)NC2CCC2)cc1OC(C)c1ccc(Cl)cn1 (single isomer, unassigned) [Example 33]
Fold selectivity: XX (Fold >50 and ≤200)

Next, consider the following compound.
Task item: Tell me measured Fold selectivity for CCNC(=O)c1cc(OC(C)c2ccccc2)c(C(=O)NC)[nH]1 (racemic) [Example 95] please.
Reply: X (Fold >2 and ≤50)

====

- Test protocol: Beagle dog PK study 2 of Example 101 (HPβCD based formulation, IV), with clinical observations
- Format: in vivo
- Run parameters: beagle, dog, plasma, iv, 1 mg/kg, dog PK study 2, IV 1 mg/kg, HPβCD, Test Animal 2
Observation type: C0 (ng/mL)
Write the number in ng/mL without appending the unit.

Task item: Tell me measured C0 for CNC(=O)c1[nH]c(C(=O)NC2CCC2)cc1O[C@@H](C)c1ccccc1 (stereo in doubt) please.
Reply: 1940

The reported measurements were obtained from patent US20250263370A1.
